This section presents molecules with their documented relative viability values.
# Test system: NCI-H1944
# assay_protocol: relative viability (nuclei count vs DMSO), 5 days (fraction); higher = more cells survive
# run_parameters: first compound 0.6325 µM
property_label: relative viability

[[record]]
molecule = "Cc1csc(=NC2CCCCC2)n1/N=C/c1ccc(O)c(O)c1O [MIM1] + COc1cc2c(Oc3ccc(NC(=O)C4(C(=O)Nc5ccc(F)cc5)CC4)cc3F)ccnc2cc1OCCCN1CCOCC1 [Foretinib] (partner 0.25 µM)"
result = 0.93

[[record]]
molecule = "Cc1csc(=NC2CCCCC2)n1/N=C/c1ccc(O)c(O)c1O [MIM1] + CC(=O)c1c(C)c2cnc(Nc3ccc(N4CCNCC4)cn3)nc2n(C2CCCC2)c1=O [Palbociclib] (partner 0.5 µM)"
result = 0.314

[[record]]
molecule = "CN1CCN(CCOc2cc(OC3CCOCC3)c3c(Nc4c(Cl)ccc5c4OCO5)ncnc3c2)CC1 [Saracatinib] + C[C@]1(O)C[C@@H](c2nc(-c3ccc4ccc(-c5ccccc5)nc4c3)c3c(N)nccn32)C1 [Linsitinib] (partner 1 µM)"
result = 0.971

[[record]]
molecule = "CN1CCN(CCOc2cc(OC3CCOCC3)c3c(Nc4c(Cl)ccc5c4OCO5)ncnc3c2)CC1 [Saracatinib] + CC(=O)c1c(C)c2cnc(Nc3ccc(N4CCNCC4)cn3)nc2n(C2CCCC2)c1=O [Palbociclib] (partner 0.5 µM)"
result = 0.305

[[record]]
molecule = "CN1CCN(CCOc2cc(OC3CCOCC3)c3c(Nc4c(Cl)ccc5c4OCO5)ncnc3c2)CC1 [Saracatinib] + NC(=O)Nc1cc(-c2cccc(F)c2)sc1C(=O)N[C@H]1CCCNC1 [AZD7762] (partner 0.2 µM)"
result = 0.528

[[record]]
molecule = "CN1CCN(CCOc2cc(OC3CCOCC3)c3c(Nc4c(Cl)ccc5c4OCO5)ncnc3c2)CC1 [Saracatinib] + CCNC(=O)c1noc(-c2cc(C(C)C)c(O)cc2O)c1-c1ccc(CN2CCOCC2)cc1 [Luminespib] (partner 0.01 µM)"
result = 0.846

[[record]]
molecule = "CN1CCN(CCOc2cc(OC3CCOCC3)c3c(Nc4c(Cl)ccc5c4OCO5)ncnc3c2)CC1 [Saracatinib] + CS(=O)(=O)CCNCc1ccc(-c2ccc3ncnc(Nc4ccc(OCc5cccc(F)c5)c(Cl)c4)c3c2)o1 [Lapatinib] (partner 2 µM)"
result = 0.872


###

This section presents compounds with their documented relative viability values.
# Tested on: BEN
# assay_protocol: relative viability (nuclei count vs DMSO), 5 days (fraction); higher = more cells survive
# run_parameters: first compound 20 µM
property_label: relative viability

[[record]]
compound = "Cc1csc(=NC2CCCCC2)n1/N=C/c1ccc(O)c(O)c1O [MIM1] + Nc1nc2[nH]cc(CCc3ccc(C(=O)N[C@@H](CCC(=O)O)C(=O)O)cc3)c2c(=O)[nH]1 [Pemetrexed] (partner 0.2 µM)"
target_or_system = "BEN"
numeric_result = 0.34

[[record]]
compound = "Cc1csc(=NC2CCCCC2)n1/N=C/c1ccc(O)c(O)c1O [MIM1] + COc1cccc2cc(-c3nc([C@H]4CC[C@H](C(=O)O)CC4)n4ncnc(N)c34)[nH]c12 [OSI-027] (partner 0.5 µM)"
target_or_system = "BEN"
numeric_result = 0.298

[[record]]
compound = "Cc1csc(=NC2CCCCC2)n1/N=C/c1ccc(O)c(O)c1O [MIM1] + CC(C)C[C@H](NC(=O)[C@H](Cc1ccccc1)NC(=O)c1cnccn1)B(O)O [Bortezomib] (partner 0.002 µM)"
target_or_system = "BEN"
numeric_result = 0.183

[[record]]
compound = "Cc1csc(=NC2CCCCC2)n1/N=C/c1ccc(O)c(O)c1O [MIM1] + CS(=O)(=O)CCNCc1ccc(-c2ccc3ncnc(Nc4ccc(OCc5cccc(F)c5)c(Cl)c4)c3c2)o1 [Lapatinib] (partner 2 µM)"
target_or_system = "BEN"
numeric_result = 0.193

[[record]]
compound = "Cc1csc(=NC2CCCCC2)n1/N=C/c1ccc(O)c(O)c1O [MIM1] + O=C(CCCCCCC(=O)Nc1ccccc1)NO [Vorinostat] (partner 1 µM)"
target_or_system = "BEN"
numeric_result = 0.394

